# PROTOCOL_NOTES: Toxicokinetics in Beagle dogs
# Assay type: in vivo
# ASSAY_CONDITIONS: both sexes, Beagle, dog, plasma, po, 5 mg/kg/day, 5 mg/kg/day oral, 14 days
REPORTED_ENDPOINT: AUC(0-inf) (ng·h/mL)

> print(dat)
                               smiles.entry  readout.unit  numeric.value
1  CCCCCCCNc1cc(/C=C/C(=O)NO)ccc1OCCN(CC)CC       ng·h/mL            199

---

# PROTOCOL_NOTES: Toxicokinetics in Beagle dogs
# Format: in vivo
# ASSAY_CONDITIONS: both sexes, Beagle, dog, in vivo, 80 mg/kg/day oral, 28 days
REPORTED_ENDPOINT: half-life (h)

> print(dat)
                                   molecule  readout.unit  numeric.value
1  CCCCCCCNc1cc(/C=C/C(=O)NO)ccc1OCCN(CC)CC [HZ1006]             h           7.56

---

# PROTOCOL_NOTES: Toxicokinetics in Beagle dogs
# Assay type: in vivo
# ASSAY_CONDITIONS: both sexes, Beagle, dog, plasma, po, 80 mg/kg/day, 80 mg/kg/day oral, single
REPORTED_ENDPOINT: half-life (h)

> print(dat)
                               smiles.entry  numeric.value
1  CCCCCCCNc1cc(/C=C/C(=O)NO)ccc1OCCN(CC)CC           6.74

---

# PROTOCOL_NOTES: Toxicokinetics in Beagle dogs
# Assay type: in vivo
# ASSAY_CONDITIONS: both sexes, Beagle, dog, plasma, po, 20 mg/kg/day, 20 mg/kg/day oral, single
REPORTED_ENDPOINT: half-life (h)

> print(dat)
                               smiles.entry  reported.endpoint  readout.unit  numeric.value
1  CCCCCCCNc1cc(/C=C/C(=O)NO)ccc1OCCN(CC)CC          half-life             h           5.54

---

# PROTOCOL_NOTES: Toxicokinetics in SD rats
# Format: in vivo, Sprague-Dawley (SD) rats
# ASSAY_CONDITIONS: both sexes, Sprague-Dawley, rat, plasma, po, 20 mg/kg/day, SD rats, 20 mg/kg/day oral, 28 days
REPORTED_ENDPOINT: AUC(0-inf) (ng·h/mL)

> print(dat)
                               smiles.entry  numeric.value
1  CCCCCCCNc1cc(/C=C/C(=O)NO)ccc1OCCN(CC)CC           32.7

---

# PROTOCOL_NOTES: Toxicokinetics in Beagle dogs
# Type: in vivo
# ASSAY_CONDITIONS: both sexes, Beagle, dog, plasma, po, 80 mg/kg/day, 80 mg/kg/day oral, 14 days
REPORTED_ENDPOINT: half-life (h)

> print(dat)
                               smiles.entry  numeric.value
1  CCCCCCCNc1cc(/C=C/C(=O)NO)ccc1OCCN(CC)CC           7.23

---

# PROTOCOL_NOTES: Toxicokinetics in Beagle dogs
# Format: in vivo
# ASSAY_CONDITIONS: both sexes, Beagle, dog, plasma, po, 5 mg/kg/day, 5 mg/kg/day oral, 14 days
REPORTED_ENDPOINT: Cmax (ng/mL)

> print(dat)
                               smiles.entry  reported.endpoint  readout.unit  numeric.value
1  CCCCCCCNc1cc(/C=C/C(=O)NO)ccc1OCCN(CC)CC               Cmax         ng/mL           30.1

---

# PROTOCOL_NOTES: Toxicokinetics in Beagle dogs
# Format: in vivo
# ASSAY_CONDITIONS: both sexes, Beagle, dog, plasma, po, 5 mg/kg/day, 5 mg/kg/day oral, 28 days
REPORTED_ENDPOINT: Tmax

> print(dat)
                               smiles.entry  result
1  CCCCCCCNc1cc(/C=C/C(=O)NO)ccc1OCCN(CC)CC  4.33 h

---

# PROTOCOL_NOTES: Toxicokinetics in SD rats
# Type: in vivo, Sprague-Dawley (SD) rats
# ASSAY_CONDITIONS: both sexes, Sprague-Dawley, rat, plasma, po, 20 mg/kg/day, SD rats, 20 mg/kg/day oral, single
REPORTED_ENDPOINT: Tmax (min)

> print(dat)
                                   compound  readout.unit  numeric.value
1  CCCCCCCNc1cc(/C=C/C(=O)NO)ccc1OCCN(CC)CC [HZ1006]           min           51.6

---

# PROTOCOL_NOTES: Toxicokinetics in Beagle dogs
# Format: in vivo
# ASSAY_CONDITIONS: both sexes, Beagle, dog, plasma, po, 5 mg/kg/day, 5 mg/kg/day oral, 14 days
REPORTED_ENDPOINT: half-life (h)

> print(dat)
                               smiles.entry  reported.endpoint  readout.unit  numeric.value
1  CCCCCCCNc1cc(/C=C/C(=O)NO)ccc1OCCN(CC)CC          half-life             h           4.75

---

# PROTOCOL_NOTES: Toxicokinetics in Beagle dogs
# Format: in vivo
# ASSAY_CONDITIONS: both sexes, Beagle, dog, plasma, po, 20 mg/kg/day, 20 mg/kg/day oral, single
REPORTED_ENDPOINT: AUC(0-inf) (µg·h/mL)

> print(dat)
                               smiles.entry  readout.unit  numeric.value
1  CCCCCCCNc1cc(/C=C/C(=O)NO)ccc1OCCN(CC)CC       µg·h/mL           1.19

---

# PROTOCOL_NOTES: Toxicokinetics in SD rats
# Assay type: in vivo, Sprague-Dawley (SD) rats
# ASSAY_CONDITIONS: both sexes, Sprague-Dawley, rat, plasma, po, 20 mg/kg/day, SD rats, 20 mg/kg/day oral, single
REPORTED_ENDPOINT: AUC(0-inf) (ng·h/mL)

> print(dat)
                                   molecule  reported.endpoint  readout.unit  numeric.value
1  CCCCCCCNc1cc(/C=C/C(=O)NO)ccc1OCCN(CC)CC [HZ1006]         AUC(0-inf)       ng·h/mL              8

---

# PROTOCOL_NOTES: Toxicokinetics in Beagle dogs
# Assay type: in vivo
# ASSAY_CONDITIONS: both sexes, Beagle, dog, plasma, po, 5 mg/kg/day, 5 mg/kg/day oral, 28 days
REPORTED_ENDPOINT: half-life (h)

> print(dat)
                                   compound  readout.unit  numeric.value
1  CCCCCCCNc1cc(/C=C/C(=O)NO)ccc1OCCN(CC)CC [HZ1006]             h           7.34

---

# PROTOCOL_NOTES: Toxicokinetics in Beagle dogs
# Type: in vivo
# ASSAY_CONDITIONS: both sexes, Beagle, dog, plasma, po, 5 mg/kg/day, 5 mg/kg/day oral, single
REPORTED_ENDPOINT: Tmax (h)

> print(dat)
                               smiles.entry  numeric.value
1  CCCCCCCNc1cc(/C=C/C(=O)NO)ccc1OCCN(CC)CC           3.67

---

# PROTOCOL_NOTES: Toxicokinetics in Beagle dogs
# Assay type: in vivo
# ASSAY_CONDITIONS: both sexes, Beagle, dog, plasma, po, 5 mg/kg/day, 5 mg/kg/day oral, single
REPORTED_ENDPOINT: AUC(0-inf) (ng·h/mL)

> print(dat)
                                   compound  numeric.value
1  CCCCCCCNc1cc(/C=C/C(=O)NO)ccc1OCCN(CC)CC [HZ1006]            193

---

# PROTOCOL_NOTES: Toxicokinetics in SD rats
# Assay type: in vivo, Sprague-Dawley (SD) rats
# ASSAY_CONDITIONS: both sexes, Sprague-Dawley, rat, plasma, po, 20 mg/kg/day, SD rats, 20 mg/kg/day oral, 28 days
REPORTED_ENDPOINT: Tmax (min)

> print(dat)
                               smiles.entry  readout.unit  numeric.value
1  CCCCCCCNc1cc(/C=C/C(=O)NO)ccc1OCCN(CC)CC           min           20.4

---

# PROTOCOL_NOTES: Toxicokinetics in SD rats
# Type: in vivo, Sprague-Dawley (SD) rats
# ASSAY_CONDITIONS: both sexes, Sprague-Dawley, rat, plasma, po, 120 mg/kg/day, SD rats, 120 mg/kg/day oral, single
REPORTED_ENDPOINT: AUC(0-inf) (ng·h/mL)

> print(dat)
                                   molecule  readout.unit  numeric.value
1  CCCCCCCNc1cc(/C=C/C(=O)NO)ccc1OCCN(CC)CC [HZ1006]       ng·h/mL           69.9

This collection of values is drawn from paper PMC5201331.
